The reader will find reported TGI values listed item by item below.
tested on: UACC-62 melanoma; experiment: NCI tumour cell line growth inhibition, 48 h
Kindly answer with a numeric value in µM, unit omitted.

[
  {
    "COMPOUND": "COc1ccc(NC2=C(Br)C(=O)C(C)=C(C)C2=O)cc1",
    "TARGET_DESC": "UACC-62 melanoma",
    "TGI, µM": 20.7
  }
]

Query: Query (compound): COC(=O)[C@H]1C=C[C@H](OC2OC(COC(C)=O)C(OC(C)=O)C(OC(C)=O)C2OC(C)=O)n2c(=O)n(-c3ccccc3)c(=O)n21 (stereo not given in full) ; field requested: TGI
Response: 3.01

Query: Entry to check: CC(C)(C)c1nc2c(o1)C(=Nc1ccc(F)cc1)c1ccccc1C2=O
Response: 6.62

Query: Again, but for CC(=O)n1c(-c2ccc(Cl)cc2)nc2c(c1=O)C(c1ccc(Cl)cc1)c1sc3c(Cl)cccc3c1O2 (stereo not given)
Response: 1.6

* * *

Below: a set of entries, each annotated with reported TGI.
tested on: MDA-N; assay: NCI tumour cell line growth inhibition, 48 h

Example entries and their recorded answers appear below.
[
  {
    "COMPOUND": "Cc1cn(C2CC(OC(c3ccccc3)(c3ccccc3)c3ccccc3)C(COC(c3ccccc3)(c3ccccc3)c3ccccc3)O2)c(=O)[nH]c1=O (stereo not drawn)",
    "TARGET_DESC": "MDA-N",
    "TGI": "> 100 µM"
  },
  {
    "COMPOUND": "Cc1c(-c2nc(N)nc(C3CC3)c2C)nc(N)nc1C1CC1",
    "TARGET_DESC": "MDA-N",
    "TGI": "> 100 µM"
  },
  {
    "COMPOUND": "COC(=O)c1cc(C(=O)OC)cc(-c2ccc3c(c2)-c2nc4c(c(-c5ccc(OC)cc5)c2CC3)CCc2ccc(-c3cc(C(=O)OC)cc(C(=O)OC)c3)cc2-4)c1",
    "TARGET_DESC": "MDA-N",
    "TGI": "> 100 µM"
  },
  {
    "COMPOUND": "CCOP(=O)(OCC)c1cc(-c2ccccc2)ccc1N",
    "TARGET_DESC": "MDA-N",
    "TGI": "> 100 µM"
  },
  {
    "COMPOUND": "CCN(CC)CCCNc1ccc([N+](=O)[O-])c2nc3ccc(OC)cc3c(NCCCN(CC)CC)c12",
    "TARGET_DESC": "MDA-N",
    "TGI": "> 10 µM"
  },
  {
    "COMPOUND": "Cc1cccc(NC(Nc2cccc(C)c2)=C(C(Cl)=C(Cl)Cl)[N+](=O)[O-])c1",
    "TARGET_DESC": "MDA-N",
    "TGI": "> 35.1 µM"
  }
]

Query: Look at this compound and give its reported TGI. COc1cc2c3c(n(C)c(=O)c2cc1OC)-c1cc2c(cc1/C3=C/CCCCBr)OCO2
Response: > 100 µM

Query: # iterate: O=C(/C=C1\C[C@H]2C=Nc3ccccc3C(=O)N2C1)NCCCCCNC(=O)/C=C1\C[C@H]2C=Nc3ccccc3C(=O)N2C1
Response: 21.5 µM

Query: Note, next up: CC/C=C\C/C=C\C/C=C\CCCCCCCC(=O)OC(COC(=O)CCCCCCCCCCCCCCCCC)COC1OC(CO)C(O)C(O)C1O (stereo not drawn)
Response: > 25 µM

Query: Another compound to check: O=c1cc(-c2ccccc2F)[nH]c2cc3c(cc12)OCO3
Response: 0.0396 µM

Query: Now give it for COC(=O)C(CCSC)NC(=O)CSc1nnc(COc2ccc(Cl)cc2)n1-c1ccccc1 (stereo not drawn) too.
Response: 34.1 µM

Query: Input Cn1c(N)nc2c(nc(OCc3ccccc3)n2C2OC(CO)C(O)C2O)c1=O (stereo not drawn)
Response: > 100 µM

Query: And the next one, O=c1c(Cc2ccccc2)c(-c2ccccc2)[nH]n1C1=NCCN1 ?
Response: > 100 µM
